Origin of values: patent US12441726B2

Listed here are compounds together with their documented IC50.
target_or_system: UniProt P51531
Sequence (P51531 whole entry): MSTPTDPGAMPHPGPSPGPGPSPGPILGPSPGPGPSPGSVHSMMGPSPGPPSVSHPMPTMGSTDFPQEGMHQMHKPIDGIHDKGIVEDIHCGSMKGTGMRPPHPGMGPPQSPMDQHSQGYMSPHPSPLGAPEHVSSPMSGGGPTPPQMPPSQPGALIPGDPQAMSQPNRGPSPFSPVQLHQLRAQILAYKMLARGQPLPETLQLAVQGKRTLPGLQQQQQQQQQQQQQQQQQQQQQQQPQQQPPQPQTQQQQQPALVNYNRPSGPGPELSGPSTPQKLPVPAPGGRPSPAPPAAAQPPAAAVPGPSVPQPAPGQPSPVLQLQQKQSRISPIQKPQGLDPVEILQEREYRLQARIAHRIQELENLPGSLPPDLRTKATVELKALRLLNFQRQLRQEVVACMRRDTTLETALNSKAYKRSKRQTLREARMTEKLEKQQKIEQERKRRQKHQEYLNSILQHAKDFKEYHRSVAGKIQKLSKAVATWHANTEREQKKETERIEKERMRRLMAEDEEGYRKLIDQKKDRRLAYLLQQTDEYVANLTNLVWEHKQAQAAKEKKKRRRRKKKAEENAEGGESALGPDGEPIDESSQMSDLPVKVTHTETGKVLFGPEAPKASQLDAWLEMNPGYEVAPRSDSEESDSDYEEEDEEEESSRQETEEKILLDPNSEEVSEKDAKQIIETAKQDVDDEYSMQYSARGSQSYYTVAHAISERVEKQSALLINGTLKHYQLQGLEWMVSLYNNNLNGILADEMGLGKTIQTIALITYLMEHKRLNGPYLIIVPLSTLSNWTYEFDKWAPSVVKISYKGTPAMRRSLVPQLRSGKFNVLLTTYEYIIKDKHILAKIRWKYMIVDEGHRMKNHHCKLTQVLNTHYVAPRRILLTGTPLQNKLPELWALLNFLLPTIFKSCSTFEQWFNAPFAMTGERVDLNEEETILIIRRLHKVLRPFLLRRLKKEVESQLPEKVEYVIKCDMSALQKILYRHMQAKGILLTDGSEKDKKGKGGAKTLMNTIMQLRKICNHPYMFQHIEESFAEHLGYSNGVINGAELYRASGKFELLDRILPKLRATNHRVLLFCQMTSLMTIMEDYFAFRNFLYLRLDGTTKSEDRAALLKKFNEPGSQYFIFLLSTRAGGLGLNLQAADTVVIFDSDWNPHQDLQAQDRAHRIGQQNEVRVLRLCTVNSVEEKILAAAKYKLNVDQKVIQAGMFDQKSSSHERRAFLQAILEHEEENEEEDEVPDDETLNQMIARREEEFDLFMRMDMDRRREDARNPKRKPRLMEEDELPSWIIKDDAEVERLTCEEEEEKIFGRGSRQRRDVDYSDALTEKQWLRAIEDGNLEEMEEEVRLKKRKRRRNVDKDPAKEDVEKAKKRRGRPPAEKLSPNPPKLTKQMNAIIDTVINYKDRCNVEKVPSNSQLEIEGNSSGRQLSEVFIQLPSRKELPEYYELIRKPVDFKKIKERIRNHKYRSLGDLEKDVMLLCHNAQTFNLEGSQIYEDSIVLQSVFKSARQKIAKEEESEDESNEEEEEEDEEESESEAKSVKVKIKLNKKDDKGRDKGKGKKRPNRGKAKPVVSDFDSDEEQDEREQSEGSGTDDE
assay: ATPase catalytic activity assay (ADP-Glo), BRM
conditions: BRM ATPase: IC50 (uM), 30 nM BRM, 400 μM ATP

Example cases with answers are listed next.
C[C@@]1(C#N)COCc2ccc(C(=O)NCc3cc4nc(-c5ccnc(N6CCC6)n5)ccc4cn3)cc21 = < 0.1 µM
C[C@H]1COCCN1c1nccc(-c2ccc3cnc(CNC(=O)c4ccc5c(c4)[C@](C)(C#N)COC5)cc3n2)n1 = 0.1 to 0.5 µM

# context switch: different compound, same IC50
Enter reported IC50 observed with UniProt P51531 for `C[C@@]1(C#N)COCc2ncc(C(=O)NCc3cc4nc(-c5cccc(C6CC6)n5)ccc4cn3)cc21`
< 0.1 µM
